assay: Phase I study plasma pharmacokinetics; format: in vivo, human; details: human, plasma, po, 1300 mg/day, Day 1 first dose; 1300 mg/day BID; n=6; median; read-out: Tmax
measurement-label: Tmax (h)
# value in h; strip the unit string

[in] Record request: Tmax value, item Cc1ccc2c(Nc3cccc(Cl)c3F)nccc2c1NC(=O)c1csc2c(N)ncnc12 [Belvarafenib]
[out] 15.5

* * *

assay: Phase I study plasma pharmacokinetics; type: in vivo, human; details: human, plasma, oral, 1600 mg/day, Multiple administrations Day 22; 1600 mg/day BID; n=4; mean; read-out: Vz/F
measurement-label: Vd/F (L)
# value in L; strip the unit string

[in] Record request: Vd/F value, item "Cc1ccc2c(Nc3cccc(Cl)c3F)nccc2c1NC(=O)c1csc2c(N)ncnc12"
[out] 871

* * *

test: Phase I study plasma pharmacokinetics; assay type: in vivo, human; conditions: human, plasma, oral, 1300 mg/day, Multiple administrations Day 22; 1300 mg/day BID; n=6; mean
measurement-label: AUC(0-inf) (µg·h/mL)
# value in µg·h/mL; strip the unit string

[in] Record request: AUC(0-inf) value, item "Cc1ccc2c(Nc3cccc(Cl)c3F)nccc2c1NC(=O)c1csc2c(N)ncnc12"
[out] 625

* * *

assay: Phase I study plasma pharmacokinetics; assay type: in vivo, human; details: human, plasma, po, 100 mg/day, Day 1 first dose; 100 mg/day QD; n=3; mean
measurement-label: AUC(0-t) (ng·h/mL)
# value in ng·h/mL; strip the unit string

[in] Record request: AUC(0-t) value, item Cc1ccc2c(Nc3cccc(Cl)c3F)nccc2c1NC(=O)c1csc2c(N)ncnc12 [Belvarafenib]
[out] 45000

* * *

test: Phase I study plasma pharmacokinetics; type: in vivo, human; conditions: human, plasma, po, 1600 mg/day, Day 1 first dose; 1600 mg/day BID; n=6; median; read-out: Tmax
measurement-label: Tmax (h)
# value in h; strip the unit string

[in] Record request: Tmax value, item "Cc1ccc2c(Nc3cccc(Cl)c3F)nccc2c1NC(=O)c1csc2c(N)ncnc12"
[out] 20.4

* * *

assay: Phase I study plasma pharmacokinetics; type: in vivo, human; conditions: human, plasma, po, 600 mg/day, Day 1 first dose; 600 mg/day BID; n=7; mean; read-out: Vz/F
measurement-label: Vd/F (L)
# value in L; strip the unit string

[in] Record request: Vd/F value, item "Cc1ccc2c(Nc3cccc(Cl)c3F)nccc2c1NC(=O)c1csc2c(N)ncnc12"
[out] 884

* * *

molecular target: CRAF (Homo sapiens, UniProt P04049, Y340D/Y341D); experiment: RAF inhibition Ki
Sequence (P04049 306-648 Y340D/Y341D): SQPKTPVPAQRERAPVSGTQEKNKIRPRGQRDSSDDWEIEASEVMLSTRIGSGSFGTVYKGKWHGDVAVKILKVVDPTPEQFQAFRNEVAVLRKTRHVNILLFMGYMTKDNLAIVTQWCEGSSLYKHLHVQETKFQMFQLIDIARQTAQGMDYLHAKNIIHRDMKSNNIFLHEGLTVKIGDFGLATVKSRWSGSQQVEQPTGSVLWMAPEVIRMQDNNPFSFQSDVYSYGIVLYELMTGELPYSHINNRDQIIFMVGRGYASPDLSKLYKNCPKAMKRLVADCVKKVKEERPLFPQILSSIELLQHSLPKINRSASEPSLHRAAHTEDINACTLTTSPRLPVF
measurement-label: pKi
The quantity pKi is defined as the negative base-10 logarithm of the molar concentration.

[in] # query: pKi | item Cc1ccc2c(Nc3cccc(Cl)c3F)nccc2c1NC(=O)c1csc2c(N)ncnc12 [Belvarafenib] | system: CRAF (Homo sapiens, UniProt P04049, Y340D/Y341D)
[out] 8.70

* * *

assay: Phase I study plasma pharmacokinetics; assay type: in vivo, human; conditions: human, plasma, oral, 600 mg/day, Multiple administrations Day 22; 600 mg/day QD; n=6; median; read-out: Tmax
measurement-label: Tmax (h)
# value in h; strip the unit string

[in] Record request: Tmax value, item "Cc1ccc2c(Nc3cccc(Cl)c3F)nccc2c1NC(=O)c1csc2c(N)ncnc12"
[out] 4.1

* * *

assay: Phase I study plasma pharmacokinetics; type: in vivo, human; conditions: human, plasma, oral, 1600 mg/day, Multiple administrations Day 22; 1600 mg/day BID; n=4; mean
measurement-label: Cmax (ng/mL)
# value in ng/mL; strip the unit string

[in] Record request: Cmax value, item "Cc1ccc2c(Nc3cccc(Cl)c3F)nccc2c1NC(=O)c1csc2c(N)ncnc12"
[out] 2360
